# Tested on: PON1
# assay: Time taken for 50% to be consumed by serum PON1 was determined
# Assay type: ADME
# particulars: human
Recorded half-life by entry
Kindly provide the numeric value in min only, without the unit symbol.

Worked set:
- molecule: "CC(=O)Oc1ccc(N)cc1"
  result units: "min"
  reported value: 20
- molecule: "CCOP(=O)(OCC)Oc1ccc([N+](=O)[O-])cc1"
  result units: "min"
  reported value: 1460
- molecule: "COc1ccc(OC(C)=O)cc1"
  result units: "min"
  reported value: 20

input: // returns reported half-life for input CC(=O)Oc1ccc([N+](=O)[O-])cc1 [4-NITROPHENYL ACETATE]
output: 3.5

input: Repeat with `CC(=O)Oc1ccccc1`
output: 1.5

====

# target desc: Serum paraoxonase/arylesterase 1 (Homo sapiens, UniProt P27169)
# Sequence (P27169 whole entry): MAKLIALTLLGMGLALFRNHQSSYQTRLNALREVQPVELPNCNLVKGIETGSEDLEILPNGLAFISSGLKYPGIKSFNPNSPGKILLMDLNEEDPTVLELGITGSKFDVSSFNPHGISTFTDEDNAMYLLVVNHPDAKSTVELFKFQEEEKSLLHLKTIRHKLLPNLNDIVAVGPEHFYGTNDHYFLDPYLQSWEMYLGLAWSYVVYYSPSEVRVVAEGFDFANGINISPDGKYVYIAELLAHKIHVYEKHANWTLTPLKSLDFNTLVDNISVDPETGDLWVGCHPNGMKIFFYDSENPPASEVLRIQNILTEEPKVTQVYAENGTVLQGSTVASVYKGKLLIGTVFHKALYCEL
# assay: Inhibitory activity against human serum paraoxonase (PON1)
measure: pIC50
Give only the number. pIC50 is defined as minus log10 of concentration in molar units.

Worked set:
- molecule: "CCOP(=O)(OCC)Oc1ccccc1"
  reported value: 2.49
- molecule: "O=P(O)(O)Oc1ccccc1 [PHENYL DIHYDROGEN PHOSPHATE]"
  reported value: 2.49
- molecule: "O=[N+]([O-])c1ccc(OP(=O)(O)O)cc1 [p-NITROPHENYLPHOSPHATE]"
  reported value: 1.73

Shift focus to the following entry.
input: // returns reported pIC50 for input `CCOP(=O)(OCC)Oc1ccc(N)cc1`
output: 2.89
